Ref: patent US20150353909

Target: K48-tetraubiquitin chains, P0CG48
Sequence (P0CG48 whole entry, looked up): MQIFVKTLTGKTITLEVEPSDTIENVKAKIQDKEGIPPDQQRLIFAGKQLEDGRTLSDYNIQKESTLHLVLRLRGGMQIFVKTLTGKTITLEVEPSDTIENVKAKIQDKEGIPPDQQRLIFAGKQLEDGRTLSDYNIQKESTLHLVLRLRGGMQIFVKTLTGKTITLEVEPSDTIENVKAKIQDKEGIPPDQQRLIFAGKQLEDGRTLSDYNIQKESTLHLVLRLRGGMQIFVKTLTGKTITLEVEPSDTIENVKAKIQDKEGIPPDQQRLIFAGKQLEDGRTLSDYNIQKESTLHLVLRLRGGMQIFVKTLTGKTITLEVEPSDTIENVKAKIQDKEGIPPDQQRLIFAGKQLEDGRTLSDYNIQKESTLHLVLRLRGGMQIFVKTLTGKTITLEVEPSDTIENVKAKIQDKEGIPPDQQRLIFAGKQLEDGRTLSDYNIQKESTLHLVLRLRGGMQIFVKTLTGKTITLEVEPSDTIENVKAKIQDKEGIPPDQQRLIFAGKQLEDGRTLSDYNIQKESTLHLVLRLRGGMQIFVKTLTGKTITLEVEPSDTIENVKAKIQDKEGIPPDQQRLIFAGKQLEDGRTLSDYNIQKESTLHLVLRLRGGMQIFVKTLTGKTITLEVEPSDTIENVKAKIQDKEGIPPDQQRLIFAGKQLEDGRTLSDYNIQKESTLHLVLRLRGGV
ENDPOINT: in vitro deubiquitylation activity

A selection of reference data follows.
PROTEIN	TEST VALUE
His-tagged OTU3 (protein) MELKSSSNNNILEQLRNGFARFELVSSPTASVSDSISSTSLPASFISTTKGNSYVFFARINSSMNRSPAAKKVEKYAVDRVKGDGRCLFRALVKGMAFNKGITLNPQRERDDADELRMAVKEVICNDPKEREKYKEALVAITVDESLKRFCQRIGRHDFWGGESELLVLSKLCKQPIIVYIPEHEHGRGGGYGPGFIPIQEYGSEFRGGWGKGKTNKNVVRLLYSGRNHYDLLR	++
His-tagged OTU7a (protein) MAKTKQQKSKPKKQPHQKQGKDCDLSQFRAQLDALGLKIIQVTADGNCFFRAIADQLEGNEDEHNKYRNMIVLYIVKNREMFEPFIEDDVPFEDYCKTMDDDGTWAGNMELQAASLVTRSNICIHRNMSPRWYIRNFEDTRTRMIHLSYHDGEHYNSVRSKEDACGGPARPVVIEADAKVSAASKQAKATESKSKNKADKCHVNAGAIKVVMSGSCCDNTEKAEQVLLQVNGDVDAAIEFLIADQGMESLTENDTETASASDTINPKHASDSPMENTEQAREELIEEESASGNNSETVQAKCTTQTDDKKIPRNKTCPCGSKKKYKSCCGTATGRSSVKLLVSQTMESKKGRKNLRRGTSNEVEANAPDVGALCI	+
His-tagged OTU2 (protein) MEGIIVRRVIPSDNSCLFNAIGYVMDKDKNKAPELRQVIAAAVASNKEKYNEAFLGKLNEEYCAWILNPDKWGGAIELSILADYYGREIAAYDIQTSRCDLYGQTRNYDERVMLIYDGLHYDALALSPFEGAEEDFDMTIYPVGKDRSIGSIEGLALNLVKDQQRKRSYTDTANFTLRCGVCQIGVIGQKEAVEHAQATGHVNFQEYK	+
GST-OTU10 (protein) MVSHEENTSIVEWFLGPHPYTYPPYGIEMIHEDDEVAVAHHHHHHQSGEYYREYEDHRSSDVDNDEIIARTLQDDFLQLEIAESNDYSHQNQQQQHQQEGYTNNYSNNNNGYAWNDQSPAVDYSSEWIGNDNDQDGRSDDSVNVFSCSSPSDTDEYVYSWESDQCDADGEFGRRLNQMVPIPYIPKINGEIPPEEEAVSDHERLRNRLEMFDFTEVKVPGDGNCQFRALADQLYKTADRHKHVRRQIVKQLKSRPDSYQGYVPMDFSDYLRKMSRSGEWGDHVTLQAAADAYRVKIVVLTSFKDTCYIEILPTSQESKGVIFLSFWAEVHYNAIYLNRDTSETELQRKRKWWRFGN	++
His-tagged OTU9 (protein) MGYEPDPDALRWGLHDLEVCTLTNAGSCSSVTRYESGGGGTQGYVREGYNQPVTGYVDNDAVIAQFYQDELSRVARAEASGINSLSPTSVVAQDWPHPHQGQENQGEAIDITQESDILHNHNGNMEDKNVARIRFEGGQSSPSRDDDSVCSVEIEEESWSEVGKRLNQMIPIAHVPKINGELPSEDEQISDHERLFQRLQLYGLVENKIEGDGNCQFRSLSDQLYRSPEHHNFVREQVVNQLAYNREIYEGYVPMAYNDYLKAMKRNGEWGDHVTLQAAADLFGVRMFVITSFKDTCYIEILPHFQKSNRLICLSFWAEVHYNSIYPEGELPIPEGKKKKKYWVF	++

The value of in vitro deubiquitylation activity measured for the protein GST-OTU4c (protein) MMICYSPITTCSRNAISIKRHLGSRLYGVVAHGSSKFSCYSLLSGLSRRHYTGFRVSVSNRPSSWHDKGLFGFAYTGVIVSLLVCYSSTSQSAYADSSRDKDANNVHHHSSDGKFHNGKRVYTDYSIIGIPGDGRCLFRSVAHGFCLRSGKLAPGEKMQRELADELRTRVADEFIQRRQETEWFVEGDFDTYVRQIRDPHVWGGEPELFMASHVLQMPITVYMKDDKAGGLISIAEYGQEYGKDDPIRVLYHGFGHYDALLLHESKASIPKSKL turned out to be +++
